I'd appreciate it if you could supply melting point values for the items below.

[Q] Which measured melting point value corresponds to FC(F)Oc1ccc2nc(NC3=NCC4(CN5CCC4CC5)O3)sc2c1 (stereo not given) ?
[A] 223 to 225 °C

[Q] Which measured melting point value corresponds to `CCCCN(CCCC)CCCOc1ccc(C(=O)c2c(-c3ccccc3)cc3ccccn23)cc1` ?
[A] 92 to 93.5 °C

[Q] Which measured melting point value corresponds to Cc1cccc(CC(NC(=O)C(c2ccccc2)c2ccccc2)C(=O)NC(C#N)CCOc2cccc(C(=O)O)c2)c1 (stereo not given) ?
[A] 169 to 170 °C

[Q] Which measured melting point value corresponds to `COc1cc(OC)nc(-n2c(N)nc3cc(C)ccc32)n1` ?
[A] > 300 °C

[Q] Which measured melting point value corresponds to `CCOC(=O)CC(C(=O)c1ccccc1)C(=O)c1ccccc1` ?
[A] 81 to 83 °C

* * *

Measurement Kind: melting point

[Q] Which measured melting point value corresponds to `COC(=O)c1cc(C(=O)c2ncc3ccccn23)ccc1N` ?
[A] 192 °C

[Q] Which measured melting point value corresponds to CCCC(=O)N1CCC(C(=O)OC2c3ccccc3C(=O)N2c2ccc3ccc(Cl)nc3n2)CC1 (configuration not stated) ?
[A] 165 °C

[Q] Which measured melting point value corresponds to `CC(=O)Nc1sccc1C(=O)c1ccccc1F` ?
[A] 144 °C

[Q] Which measured melting point value corresponds to `COC(=O)Cc1cc(NC=O)cc(OC)n1` ?
[A] 61 to 63 °C

[Q] Which measured melting point value corresponds to CCCC1=C(C(=O)OCC)SCCS1=O (configuration not stated) ?
[A] 109 to 110 °C

[Q] Which measured melting point value corresponds to `c1ccc(C2CCN(c3nsc4ccccc34)CC2)cc1` ?
[A] 175 to 177 °C

[Q] Which measured melting point value corresponds to `CCCCc1nc2ccccn2c(=O)c1-c1ccc(Cl)c(OC)c1` ?
[A] 113 to 115 °C

[Q] Which measured melting point value corresponds to `CC1(C)CCC(C)(C)c2c(CO)cc(-c3ccccc3)cc21` ?
[A] 80 to 82 °C

[Q] Which measured melting point value corresponds to `CC1(C)OCCc2c1[nH]c1ccccc21` ?
[A] 142 to 144 °C

[Q] Which measured melting point value corresponds to CC1=C(C)C(=O)C(C(C)c2ccc(CC(=O)O)cc2)=C(C)C1=O (configuration not stated) ?
[A] 142 to 143 °C

[Q] Which measured melting point value corresponds to O=S(=O)(c1ccccc1)C(F)(F)C(O)c1ccco1 (configuration not stated) ?
[A] 72 to 74 °C

[Q] Which measured melting point value corresponds to `Cc1cc(-c2c(-c3ccc(OCC(F)(F)F)c(C(F)(F)F)c3)nc3cncn3c2C(F)(F)F)ccn1` ?
[A] 219 °C

[Q] Which measured melting point value corresponds to `O=C1c2c(O)ccc(O)c2C(=O)c2c(NCCN3CCOC34CCCCC4)ccc(NCCN3CCOC34CCCCC4)c21` ?
[A] 218 to 225 °C

[Q] Which measured melting point value corresponds to `CC1(C)NC(=O)CSC1=NO` ?
[A] 234 to 236 °C

[Q] Which measured melting point value corresponds to Cc1ccc(C(=O)NC(Cc2ccccc2)NC(=S)Nc2cccc([N+](=O)[O-])c2)cc1 (configuration not stated) ?
[A] 170 to 171 °C

[Q] Which measured melting point value corresponds to CC(=O)SC1NC(=O)C1C (configuration not stated) ?
[A] 53 to 65 °C

[Q] Which measured melting point value corresponds to `Cc1cc(-c2ccccc2)n2nc(C(F)(F)F)c(C#N)c2n1` ?
[A] 143 to 148 °C

[Q] Which measured melting point value corresponds to `COc1ccc(-c2ccc(C(=O)NO)cc2)cc1OC1CCCC1` ?
[A] 181 to 183 °C

[Q] Which measured melting point value corresponds to `Cn1nc2c3c(c(Cl)ccc31)C(=O)c1cnccc1-2` ?
[A] 244 to 245 °C

[Q] Which measured melting point value corresponds to `CON(C)C(=O)/C=C/c1c(C2CC2)nc2ccccc2c1-c1ccc(F)cc1` ?
[A] 141 °C

[Q] Which measured melting point value corresponds to `CCn1nc(C(F)(F)F)cc1NC(=O)c1c(C)cccc1C(=O)NC(C)C` ?
[A] 223 to 226 °C

[Q] Which measured melting point value corresponds to `CNC(=O)Nc1ccc(F)cc1Cl` ?
[A] 174 to 178 °C

Every entry's value here was drawn from a melting point compilation (Tetko et al.; mined from patent text by program, amines drawn as free bases though some values may be those of a salt).
